# System: P388/ADR
# assay-explanation: cells
# Assay type: functional
# experimental-context: Mus musculus
Active and inactive are the calls of the source.
Possible outcomes: active, inactive

>  <compound>
CC(C)=CCc1c(O)ccc2c1OC1c3ccc(O)c(CC=C(C)C)c3OCC21 (stereo not given)

>  <group-label>
inactive

$$$$
>  <compound>
CC1(CO)C(O)CCC2(C)C1CCC1CC3CC12CCC3(O)CO (stereo not given)

>  <group-label>
active

$$$$
>  <compound>
O=[N+]([O-])c1ccc(Nc2cccc3c4cc[nH]c(-c5ccccc5)c-4nc23)c([N+](=O)[O-])c1

>  <group-label>
inactive

$$$$
>  <compound>
C=CCNC(=O)C(C)C1CCC2(C)C=CC(=O)C(C)=C2C1O (stereo not given)

>  <group-label>
inactive

$$$$
>  <compound>
CC12CCC3C(CCC4(O)C=CCCC34C=O)C1(O)CC(O)C2c1ccc(=O)oc1 (stereo not given)

>  <group-label>
inactive

$$$$

###

# Test system: H9c2;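 also: cell death induced by hydrogen peroxide oxidative stress; compound pretreatment for 60 min then peroxide exposure for 2 h; potency is for protecting the cells against peroxide damage rather than for killing them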;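 also: confirmatory concentration-response retest of ultra-high-throughput screening hits for modulation of myocardial damage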
# assay-explanation: cells
# Format: functional, cell-based
# experimental-context: Rattus norvegicus, H9c2, Myocardium
Active and inactive are the calls of the source.
Possible outcomes: active, inactive

>  <smiles-str>
O=C(c1ccco1)N1CCN(Cc2nc3ccc([N+](=O)[O-])cc3c(=O)n2-c2ccccc2F)CC1

>  <group-label>
active

$$$$
>  <smiles-str>
Nc1cc2nc(O)c3ccccc3c2cc1Br

>  <group-label>
inactive

$$$$
>  <smiles-str>
O=C1c2cccnc2Oc2ccc(Cl)cc2N1Cc1ccc(F)cc1

>  <group-label>
inactive

$$$$
>  <smiles-str>
Cc1ccc(-c2nnc(O)c3ccccc23)cc1S(=O)(=O)NCCO

>  <group-label>
inactive

$$$$
>  <smiles-str>
CN1CCC(N(C)C(=O)CCc2nc(O)c3ccccc3n2)CC1

>  <group-label>
inactive

$$$$
>  <smiles-str>
O=C(Nc1cccc(NC(=O)c2ccc([N+](=O)[O-])o2)c1)c1ccco1

>  <group-label>
inactive

$$$$
>  <smiles-str>
COc1cc(-c2cc(C(=O)Nc3ccccc3N3CCOCC3)c3ccccc3n2)cc(OC)c1OC

>  <group-label>
inactive

$$$$

###

# assayed-system: Nonstructural protein 1 (Influenza A virus)
# Sequence (Q194T2 whole entry): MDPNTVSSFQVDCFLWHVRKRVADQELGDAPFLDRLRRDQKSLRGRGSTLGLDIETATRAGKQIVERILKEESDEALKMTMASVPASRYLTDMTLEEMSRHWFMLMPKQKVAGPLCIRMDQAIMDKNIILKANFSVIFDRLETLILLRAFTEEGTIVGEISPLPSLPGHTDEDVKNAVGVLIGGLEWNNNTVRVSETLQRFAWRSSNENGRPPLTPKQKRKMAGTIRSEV
# Type: functional, Influenza A virus (A/California/07/2009(H1N1))
Active and inactive are the calls of the source.

>  <molecule>
N=C(N)c1ccc(/N=N/c2c(O)ccc3c2[nH]c2ccccc23)cc1

>  <IC50>
6.65 µM (active)

$$$$
>  <molecule>
CCCN1C(=O)/C(=C2\SC(N3CCCCC3)=NC2=O)c2ccccc21

>  <IC50>
28.5 µM (active)

$$$$
>  <molecule>
CCCn1c(C)cc(C(=O)COc2ccc(C)nc2[N+](=O)[O-])c1C

>  <IC50>
> 100 µM (active)

$$$$
>  <molecule>
Cc1ccc(N2C(=O)/C(=C\NNc3ccc(S(=O)(=O)N4CCOCC4)cc3[N+](=O)[O-])c3ccccc3C2=O)c(C)c1

>  <IC50>
8.94 µM (active)

$$$$
>  <molecule>
CCCn1nc([N+](=O)[O-])c(C(C#N)c2nc3ccccc3s2)c(Cl)c1=O (stereo not given)

>  <IC50>
24.7 µM (active)

$$$$

###

# assayed-system: Carboxy-terminal domain RNA polymerase II polypeptide A small phosphatase 1 (Homo sapiens, UniProt Q9GZU7)
# Sequence (Q9GZU7 whole entry, the tested form may be a part): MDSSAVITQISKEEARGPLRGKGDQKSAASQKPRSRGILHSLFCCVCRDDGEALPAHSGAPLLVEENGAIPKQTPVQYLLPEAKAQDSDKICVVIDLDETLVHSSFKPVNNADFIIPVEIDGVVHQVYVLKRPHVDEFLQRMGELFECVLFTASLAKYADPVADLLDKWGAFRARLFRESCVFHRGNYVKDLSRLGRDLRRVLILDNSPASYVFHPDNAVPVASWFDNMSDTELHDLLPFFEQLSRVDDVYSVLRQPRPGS
# assay-explanation: CTDSP1 inhibitors, concentration-response, biochemical, absorbance readout, ultra-high-throughput screen actives (AID 540297)
# Format: functional
Activity calls are given as the source filed them.
measured-parameter: IC50

>  <molecule>
O=C(CCCCCCCC(=O)NNC(=O)Nc1ccccc1)NNC(=O)Nc1ccccc1

>  <observed-value>
11.9 µM (active)

$$$$
>  <molecule>
CN(C)C(CNC(=O)c1cc(-c2ccco2)nc2ccccc12)c1ccccc1 (configuration not stated)

>  <observed-value>
2.75 µM (active)

$$$$
>  <molecule>
NC(=NOC(=O)N1c2ccccc2Sc2ccccc21)c1ccc(Br)cc1

>  <observed-value>
6.46 µM (active)

$$$$
>  <molecule>
CC(C)c1cccc(-c2ccc3c(c2)S(=O)(=O)c2cccc(C(=O)NCc4ccco4)c2C3=O)c1

>  <observed-value>
8.02 µM (active)

$$$$
>  <molecule>
CCCN(C(=O)c1cccc(-n2cccc2)c1)c1c(N)n(Cc2ccccc2)c(=O)[nH]c1=O

>  <observed-value>
6.44 µM (active)

$$$$
>  <molecule>
O=C(c1coc(=O)c(Br)c1)N1CCOCC1

>  <observed-value>
7.34 µM (active)

$$$$
>  <molecule>
Cc1ccn2c(=O)nc(SCC(=O)NCc3ccccc3)nc2c1

>  <observed-value>
9.61 µM (active)

$$$$

Just for reference, ChEMBL document CHEMBL1201862 is where these values come from.
